# System: human foreskin fibroblasts (HFF)
# MEASUREMENT PROTOCOL: MTT cytotoxicity assay, human foreskin fibroblasts
# Format: cell-based
# TEST CONDITIONS: non-transformed human foreskin fibroblasts, 72 hr, highest concentration tested 2.5 μM, read-out: IC50, cell killing
pIC50: −log10 of the molar value.
MEASURED METRIC: pIC50

COMPOUND	MEASURED METRIC	RESULT
Cl.Cl.N#Cc1ccc(/C=C2/C(=O)/C(=C/c3ccc(C#N)cc3)C23CCN(C(=N)N)CC3)cc1 [RA475]	pIC50	< 5.60

* * *

# SYSTEM: 42 kDa RPN13 (Homo sapiens, UniProt Q16186)
# Construct: endogenous in cells; host or cells: ES2 cell lysate (clarified, in MPER buffer)
# Sequence (Q16186 whole entry): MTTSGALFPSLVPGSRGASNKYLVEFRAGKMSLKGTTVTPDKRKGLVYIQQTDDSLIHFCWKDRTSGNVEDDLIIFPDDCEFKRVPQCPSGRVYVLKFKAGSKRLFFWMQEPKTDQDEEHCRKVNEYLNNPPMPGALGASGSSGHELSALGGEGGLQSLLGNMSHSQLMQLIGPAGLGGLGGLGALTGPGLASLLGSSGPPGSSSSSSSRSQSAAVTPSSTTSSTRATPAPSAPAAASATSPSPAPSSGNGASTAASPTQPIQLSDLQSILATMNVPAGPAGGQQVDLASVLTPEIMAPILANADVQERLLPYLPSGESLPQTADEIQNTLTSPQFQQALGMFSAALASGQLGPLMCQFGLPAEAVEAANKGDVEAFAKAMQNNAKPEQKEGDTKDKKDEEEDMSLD
# MEASUREMENT PROTOCOL: RA190B competitive labeling assay in ES2 cell lysate
# Format: binding
# TEST CONDITIONS: ES2 cell lysate pre-incubated 45 min at 4° C. (bortezomib or Up compounds 5 μM), then RA190B 20 μM
MEASURED METRIC: competition with binding of RA190B to the 42 kDa RPN13

COMPOUND	SYSTEM	RESULT
C=CC(=O)N1CCC2(CC1)/C(=C\c1ccc(C#N)cc1)C(=O)/C2=C/c1ccc(C#N)cc1 [Up285]	42 kDa RPN13 (Homo sapiens, UniProt Q16186)	competed
N#Cc1ccc(/C=C2/C(=O)/C(=C/c3ccc(C#N)cc3)C23CCNCC3)cc1 [Up284, reference compound]	42 kDa RPN13 (Homo sapiens, UniProt Q16186)	competed
